Measured values drawn from ChEMBL document CHEMBL1149435 for this set.

targetSystem: Adenosylhomocysteinase (Homo sapiens)
Sequence (P23526 whole entry): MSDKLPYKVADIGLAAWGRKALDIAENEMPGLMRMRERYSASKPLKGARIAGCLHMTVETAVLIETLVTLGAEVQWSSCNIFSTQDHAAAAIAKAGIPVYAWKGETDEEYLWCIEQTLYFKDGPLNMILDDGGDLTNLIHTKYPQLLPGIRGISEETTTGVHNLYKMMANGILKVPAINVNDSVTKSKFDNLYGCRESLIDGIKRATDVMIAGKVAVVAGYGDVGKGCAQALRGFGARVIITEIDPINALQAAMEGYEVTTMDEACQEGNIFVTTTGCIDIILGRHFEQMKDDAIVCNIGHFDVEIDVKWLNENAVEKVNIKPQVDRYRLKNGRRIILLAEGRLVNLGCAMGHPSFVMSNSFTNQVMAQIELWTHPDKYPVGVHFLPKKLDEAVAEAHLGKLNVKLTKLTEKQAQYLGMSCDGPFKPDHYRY
measuredEndpoint: pKi
Numbers only, as −log10 of the molar value.

Per the records, this compound ( N#C/C(Cl)=C\[C@H]1O[C@@H](n2cnc3c(N)ncnc32)[C@H](O)[C@@H]1O ) has pKi equal to 4.77
